I'd be grateful if you could share measured IC50 for these entries.
SYSTEM TESTED: CDK9/CycT1 (Homo sapiens, UniProt P50750)
Construct: Recombinant full-length His-tagged human CDK9 and CycT1; purchased Life Technologies PV4131; host or cells: insect cells
Sequence (P50750 whole entry): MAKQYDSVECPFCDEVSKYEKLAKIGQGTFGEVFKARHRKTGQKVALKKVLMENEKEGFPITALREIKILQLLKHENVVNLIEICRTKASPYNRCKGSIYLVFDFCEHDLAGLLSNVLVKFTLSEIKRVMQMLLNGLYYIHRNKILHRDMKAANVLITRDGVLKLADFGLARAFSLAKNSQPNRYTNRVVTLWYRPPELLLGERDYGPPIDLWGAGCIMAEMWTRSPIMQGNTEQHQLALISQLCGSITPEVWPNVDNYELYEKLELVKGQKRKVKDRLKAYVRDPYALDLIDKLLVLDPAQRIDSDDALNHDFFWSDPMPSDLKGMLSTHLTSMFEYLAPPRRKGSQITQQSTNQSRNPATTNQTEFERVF
Sequence (O60563 whole entry partner): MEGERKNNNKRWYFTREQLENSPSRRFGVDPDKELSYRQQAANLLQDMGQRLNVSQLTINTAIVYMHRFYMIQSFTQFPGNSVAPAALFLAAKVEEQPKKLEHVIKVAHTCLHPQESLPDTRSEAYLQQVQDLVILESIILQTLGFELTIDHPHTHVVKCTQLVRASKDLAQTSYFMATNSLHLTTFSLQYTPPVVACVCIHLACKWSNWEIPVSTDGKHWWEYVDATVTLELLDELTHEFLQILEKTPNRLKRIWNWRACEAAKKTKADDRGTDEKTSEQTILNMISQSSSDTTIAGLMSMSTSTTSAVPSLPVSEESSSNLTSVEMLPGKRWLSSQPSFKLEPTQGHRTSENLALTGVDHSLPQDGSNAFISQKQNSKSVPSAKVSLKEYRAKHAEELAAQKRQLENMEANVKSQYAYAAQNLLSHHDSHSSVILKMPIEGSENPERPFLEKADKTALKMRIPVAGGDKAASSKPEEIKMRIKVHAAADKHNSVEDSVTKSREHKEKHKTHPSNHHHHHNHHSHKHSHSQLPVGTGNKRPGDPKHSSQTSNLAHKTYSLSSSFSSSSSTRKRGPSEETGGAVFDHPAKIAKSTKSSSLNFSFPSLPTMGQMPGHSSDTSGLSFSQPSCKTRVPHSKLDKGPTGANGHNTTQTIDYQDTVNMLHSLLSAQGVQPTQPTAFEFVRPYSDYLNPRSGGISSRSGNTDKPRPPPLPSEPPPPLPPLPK
EXPERIMENT SUMMARY: CDK9/CycT1 high ATP kinase assay (TR-FRET, 2 mM ATP)
Format: biochemical
PROTOCOL CONDITIONS: 2 mM ATP (high ATP); median; read-out: CDK9/CyclinT1, 2 mM ATP (high ATP), IC50 (median)

[in] Name the reported IC50 value associated with the compound c1ccc(-c2nnc(CNc3nc(N4CCOCC4)nc4c(C5CC5)cnn34)[nH]2)cc1 [Example 93]
[out] 8.59 µM

[in] Same question for Brc1cnn2c(NCc3nc4ccccc4[nH]3)nc(N3C[C@@H]4CN[C@@H]4C3)nc12.O=C(O)C(F)(F)F [Example 267] please.
[out] > 20 µM

[in] Same question for N#Cc1cnn2c(NCc3nc4ccccc4[nH]3)nc(N3CCOCC3)nc12 [Example 43] please.
[out] > 20 µM

[in] Same question for Clc1ccc2[nH]c(CNc3nc(N4CCOCC4)nc4c(Br)cnn34)nc2c1 [Example 162] please.
[out] 17.4 µM

[in] Same question for Brc1cnn2c(NCc3nc4ccccc4[nH]3)nc(N3C[C@@H]4C[C@H]3CN4)nc12 [Example 270] please.
[out] > 20 µM

[in] Same question for Brc1cnn2c(NCc3nc4ccccc4[nH]3)nc(N3CCCCC3)nc12 [Example 46] please.
[out] > 20 µM

[in] Same question for CN1C2CCC1CN(c1nc(NCc3nc4c(F)c(F)ccc4[nH]3)n3ncc(C(F)(F)F)c3n1)C2 [Example 356] please.
[out] > 20 µM

[in] Same question for Brc1cnn2c(NCc3nc4ccccc4[nH]3)nc(OC3CCCCC3)nc12 [Example 406] please.
[out] > 20 µM

[in] Same question for Fc1ccc2[nH]c(CNc3nc(N4CCOCC4)nc4c(CC(F)(F)F)cnn34)nc2c1F [Example 268] please.
[out] > 20 µM

[in] Same question for Fc1ccc(-c2nnc(CNc3nc(N4CCOCC4)nc4c(Br)cnn34)[nH]2)cc1 [Example 29] please.
[out] 2.4 µM

[in] Same question for CC1(O)CCN(c2nc(NCc3nc4ccccc4[nH]3)n3ncc(Br)c3n2)C1 (centres unmarked) [Example 225] please.
[out] > 20 µM

[in] Same question for Cc1ccccc1-c1cnc(CNc2nc(N3CCOCC3)nc3c(Br)cnn23)[nH]1 [Example 85] please.
[out] > 10.8 µM

[in] Same question for FC(F)(F)Oc1cccc2[nH]c(CNc3nc(N4C[C@H]5CC[C@@H](C4)N5)nc4c(Br)cnn34)nc12 [Example 381] please.
[out] 14 µM

[in] Same question for CN(CC(C)(C)O)c1nc(NCc2nc3cc(Cl)c(Cl)cc3[nH]2)n2ncc(Br)c2n1 [Example 331] please.
[out] 4.9 µM

[in] Same question for Cc1ccc(-c2nnc(CNc3nc(N4CCOCC4)nc4c(Br)cnn34)[nH]2)cc1F [Example 98] please.
[out] 0.953 µM

[in] Same question for Brc1cnn2c(NCc3nnc(-c4ccccc4)[nH]3)nc(N3C[C@@H]4C[C@H]3CO4)nc12 [Example 120] please.
[out] 10.4 µM

[in] Same question for Fc1ccc2[nH]c(CNc3nc(N4CCOCC4)nc4c(C5CC5(F)F)cnn34)nc2c1 (racemic) [Example 286] please.
[out] > 20 µM

[in] Same question for OCC1COCCN1c1nc(NCc2nc3ccccc3[nH]2)n2ncc(Br)c2n1 (centres unmarked) [Example 67] please.
[out] > 19.4 µM

[in] Same question for Fc1ccc2[nH]c(CNc3nc(N4C[C@@H]5CCCN[C@@H]5C4)nc4c(C5CC5)cnn34)nc2c1 [Example 180] please.
[out] > 20 µM

[in] Same question for c1ccc2[nH]c(CNc3nc(N4C[C@@H]5CCCN[C@@H]5C4)nc4c(C5CC5)cnn34)nc2c1 [Example 249] please.
[out] > 20 µM

* * *

SYSTEM TESTED: CDK2/CycE (Homo sapiens)
EXPERIMENT SUMMARY: CDK2/CycE kinase assay (TR-FRET, 2 mM ATP)
PROTOCOL CONDITIONS: 2 mM ATP (high ATP); median; read-out: CDK2/CyclinE, 2 mM ATP (high ATP), IC50 (median)
EXPERIMENTAL READOUT: IC50

[in] Name the reported IC50 value associated with the molecule C[C@H]1CN(c2nc(NCc3nnc(-c4cccc(F)c4)[nH]3)n3ncc(Br)c3n2)CCN1C
[out] 4.47 µM

[in] Same question for Brc1cnn2c(NCc3nc4ccccc4[nH]3)nc(N3CC4CCC3CO4)nc12 (stereo not drawn) please.
[out] 2.3 µM

[in] Same question for Brc1cnn2c(NCc3nc4ccccc4[nH]3)nc(N3CC4CCC(C3)N4)nc12 please.
[out] 2.87 µM

[in] Same question for NCCc1ccc2[nH]c(CNc3nc(N4CCOCC4)nc4c(Br)cnn34)nc2c1.O=CO please.
[out] 1.2 µM

[in] Same question for CN(CCN1CCCC1)c1nc(NCc2nc3ccccc3[nH]2)n2ncc(Br)c2n1 please.
[out] > 20 µM

[in] Same question for Fc1cc2nc(CNc3nc(N4CC5CCC(C4)N5)nc4c(Br)cnn34)[nH]c2cc1F please.
[out] > 18.6 µM

[in] Same question for CN1CCCC2CN(c3nc(NCc4nc5ccccc5[nH]4)n4ncc(Br)c4n3)CC21 (stereo not drawn) please.
[out] 12.4 µM

[in] Same question for Brc1cnn2c(NCc3nnc(-c4ccccc4)[nH]3)nc(N3CCNCC3)nc12.O=CO [Example 119, formate] please.
[out] 7.77 µM

[in] Same question for NCCCc1cccc2[nH]c(CNc3nc(N4CCOCC4)nc4c(Br)cnn34)nc12.O=CO please.
[out] 5.44 µM

[in] Same question for CN1CCN(c2nc(NCc3nc4cc(Cl)c(Cl)cc4[nH]3)n3ncc(C4CC4)c3n2)CC1 please.
[out] > 20 µM

[in] Same question for Fc1ccc2[nH]c(CNc3nc(N4CCOCC4)nc4c(Br)cnn34)nc2c1F please.
[out] 4.56 µM

[in] Same question for Fc1ccc2[nH]c(CNc3nc(N4CCOCC4)nc4c(CC(F)(F)F)cnn34)nc2c1 please.
[out] > 20 µM

[in] Same question for CN1CC[C@@H]2CN(c3nc(NCc4nc5ccccc5[nH]4)n4ncc(Br)c4n3)C[C@@H]21 please.
[out] > 20 µM

[in] Same question for O=C(O)C(F)(F)F.c1ccc2[nH]c(CNc3nc(N4CCOCC4)nc4c(-c5ccnnc5)cnn34)nc2c1 please.
[out] > 20 µM

[in] Same question for Clc1ccc(-c2cnc(CNc3nc(N4CCOCC4)nc4c(Br)cnn34)[nH]2)cc1 please.
[out] 4.35 µM

[in] Same question for CCNc1nc(NCc2nc(-c3ccc(C)cc3)c[nH]2)n2ncc(Br)c2n1 please.
[out] 2.07 µM

[in] Same question for Brc1cnn2c(NCc3nc4ccncc4[nH]3)nc(N3CCOCC3)nc12 please.
[out] 15.5 µM

[in] Same question for FC(F)(F)c1cccc(-c2cnc(CNc3nc(N4CCOCC4)nc4c(Br)cnn34)[nH]2)c1 please.
[out] 7.66 µM

* * *

SYSTEM TESTED: CDK12 (nuclear staining in CAL-120 cells) (Homo sapiens, UniProt Q9NYV4)
Construct: endogenous in cells; host or cells: CAL-120 human breast cancer cells (DSMZ ACC 459)
Sequence (Q9NYV4 whole entry): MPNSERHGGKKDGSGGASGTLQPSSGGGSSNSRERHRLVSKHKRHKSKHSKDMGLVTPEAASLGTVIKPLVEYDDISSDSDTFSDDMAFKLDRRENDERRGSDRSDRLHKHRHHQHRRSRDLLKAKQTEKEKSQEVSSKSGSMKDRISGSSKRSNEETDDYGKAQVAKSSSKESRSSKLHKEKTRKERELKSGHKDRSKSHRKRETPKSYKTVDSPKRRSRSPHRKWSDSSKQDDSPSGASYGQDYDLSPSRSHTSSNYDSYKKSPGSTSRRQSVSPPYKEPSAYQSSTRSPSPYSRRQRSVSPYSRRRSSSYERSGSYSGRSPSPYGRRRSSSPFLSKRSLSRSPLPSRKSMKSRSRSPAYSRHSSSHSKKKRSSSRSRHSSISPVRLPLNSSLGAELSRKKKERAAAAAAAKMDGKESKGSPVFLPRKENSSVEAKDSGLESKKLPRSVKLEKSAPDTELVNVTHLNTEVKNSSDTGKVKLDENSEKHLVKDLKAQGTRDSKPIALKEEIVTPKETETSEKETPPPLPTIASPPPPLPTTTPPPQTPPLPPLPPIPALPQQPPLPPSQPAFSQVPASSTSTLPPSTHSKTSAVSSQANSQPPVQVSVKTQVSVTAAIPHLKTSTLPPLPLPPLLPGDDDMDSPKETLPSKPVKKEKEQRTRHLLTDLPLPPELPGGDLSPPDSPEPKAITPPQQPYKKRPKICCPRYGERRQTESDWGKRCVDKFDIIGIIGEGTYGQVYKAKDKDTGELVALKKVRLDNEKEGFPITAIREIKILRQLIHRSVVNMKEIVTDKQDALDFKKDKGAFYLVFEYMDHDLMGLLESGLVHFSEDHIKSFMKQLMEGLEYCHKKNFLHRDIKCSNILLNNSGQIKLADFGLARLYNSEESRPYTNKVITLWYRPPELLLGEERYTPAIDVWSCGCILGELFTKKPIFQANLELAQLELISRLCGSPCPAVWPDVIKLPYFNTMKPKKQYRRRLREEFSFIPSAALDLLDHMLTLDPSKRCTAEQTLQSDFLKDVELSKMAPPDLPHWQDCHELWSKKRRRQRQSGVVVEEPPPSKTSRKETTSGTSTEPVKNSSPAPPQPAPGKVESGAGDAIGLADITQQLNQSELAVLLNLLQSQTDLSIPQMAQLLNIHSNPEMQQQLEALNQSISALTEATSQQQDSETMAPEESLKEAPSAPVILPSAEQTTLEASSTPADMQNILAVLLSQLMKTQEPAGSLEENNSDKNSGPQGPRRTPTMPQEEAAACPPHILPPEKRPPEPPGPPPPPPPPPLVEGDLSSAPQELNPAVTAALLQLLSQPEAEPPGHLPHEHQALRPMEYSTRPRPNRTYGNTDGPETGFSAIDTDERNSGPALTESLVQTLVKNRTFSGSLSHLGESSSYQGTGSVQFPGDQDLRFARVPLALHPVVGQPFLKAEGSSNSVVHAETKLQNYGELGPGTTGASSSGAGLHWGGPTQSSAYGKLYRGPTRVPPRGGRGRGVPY
Sequence (O75909 whole entry partner): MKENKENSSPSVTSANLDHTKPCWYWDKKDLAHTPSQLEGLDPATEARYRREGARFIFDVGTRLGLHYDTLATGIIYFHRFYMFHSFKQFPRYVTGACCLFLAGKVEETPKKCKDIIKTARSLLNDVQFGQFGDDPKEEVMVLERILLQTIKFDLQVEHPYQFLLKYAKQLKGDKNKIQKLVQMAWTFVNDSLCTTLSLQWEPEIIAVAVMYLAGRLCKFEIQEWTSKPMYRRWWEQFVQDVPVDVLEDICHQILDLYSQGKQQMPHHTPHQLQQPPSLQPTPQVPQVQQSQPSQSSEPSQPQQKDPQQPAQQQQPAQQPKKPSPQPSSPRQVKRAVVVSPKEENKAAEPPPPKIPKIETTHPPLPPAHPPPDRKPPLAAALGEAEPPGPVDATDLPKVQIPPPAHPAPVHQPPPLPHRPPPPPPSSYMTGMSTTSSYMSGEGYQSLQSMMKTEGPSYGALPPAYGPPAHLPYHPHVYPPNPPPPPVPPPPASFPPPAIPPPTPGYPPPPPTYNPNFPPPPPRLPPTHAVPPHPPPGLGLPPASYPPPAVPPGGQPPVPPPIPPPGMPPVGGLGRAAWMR
EXPERIMENT SUMMARY: CDK12 nuclear protein level: immunofluorescence/high content analysis (CAL-120)
Type: cell-based
PROTOCOL CONDITIONS: ratio of IC50 CDK12 high ATP kinase assay to DC50 CDK12 degradation (IF, CAL-120)
EXPERIMENTAL READOUT: (IC50 CDK12 high ATP) to (Degradation DC50 CDK12) ratio

[in] Name the reported (IC50 CDK12 high ATP) to (Degradation DC50 CDK12) ratio value associated with the compound Fc1ccc2[nH]c(CNc3nc(N4C[C@@H]5C[C@H]4CO5)nc4c(C5CC5)cnn34)nc2c1
[out] >7872

[in] Same question for Clc1cccc(-c2cnn3c(NCc4nc5ccccc5[nH]4)nc(N4CCOCC4)nc23)c1 please.
[out] >347

[in] Same question for Brc1cnn2c(NCc3nc4ccccc4[nH]3)nc(N3CCC3)nc12 please.
[out] >646

* * *

SYSTEM TESTED: CDK12 (nuclear staining in CAL-120 cells) (Homo sapiens, UniProt Q9NYV4)
Construct: endogenous in cells; host or cells: CAL-120 human breast cancer cells (DSMZ ACC 459)
EXPERIMENT SUMMARY: CDK12 nuclear protein level: immunofluorescence/high content analysis (CAL-120)
Format: cell-based
PROTOCOL CONDITIONS: ratio of IC50 CDK12 high ATP kinase assay to DC50 CDK12 degradation (IF, CAL-120)
I'd be grateful if you could share measured (IC50 CDK12 high ATP) to (Degradation DC50 CDK12) ratio for these entries.

[in] Name the reported (IC50 CDK12 high ATP) to (Degradation DC50 CDK12) ratio value associated with the compound Cc1cnn2c(NCc3nc4c(F)c(F)ccc4[nH]3)nc(N3CCN(C)CC3)nc12
[out] >3303

[in] Same question for Brc1cnn2c(NCc3nc4ccccc4[nH]3)nc(N3C[C@@H]4CN[C@@H]4C3)nc12.O=C(O)C(F)(F)F please.
[out] >627

[in] Same question for c1ccc2[nH]c(CNc3nc(N4CCOCC4)nc4c(-c5ccncc5)cnn34)nc2c1 please.
[out] >1337

[in] Same question for Fc1ccc2[nH]c(CNc3nc(N4CCOCC4)nc4c(C5CCOCC5)cnn34)nc2c1F please.
[out] >516
